Molecular target: T1, rhesus VEGFR2 protein (rhesus monkey)
T1 construct: Recombinant protein used in ELISA; also called rhesus monkey VEGFR2; rh VEGFR2
T1 chain: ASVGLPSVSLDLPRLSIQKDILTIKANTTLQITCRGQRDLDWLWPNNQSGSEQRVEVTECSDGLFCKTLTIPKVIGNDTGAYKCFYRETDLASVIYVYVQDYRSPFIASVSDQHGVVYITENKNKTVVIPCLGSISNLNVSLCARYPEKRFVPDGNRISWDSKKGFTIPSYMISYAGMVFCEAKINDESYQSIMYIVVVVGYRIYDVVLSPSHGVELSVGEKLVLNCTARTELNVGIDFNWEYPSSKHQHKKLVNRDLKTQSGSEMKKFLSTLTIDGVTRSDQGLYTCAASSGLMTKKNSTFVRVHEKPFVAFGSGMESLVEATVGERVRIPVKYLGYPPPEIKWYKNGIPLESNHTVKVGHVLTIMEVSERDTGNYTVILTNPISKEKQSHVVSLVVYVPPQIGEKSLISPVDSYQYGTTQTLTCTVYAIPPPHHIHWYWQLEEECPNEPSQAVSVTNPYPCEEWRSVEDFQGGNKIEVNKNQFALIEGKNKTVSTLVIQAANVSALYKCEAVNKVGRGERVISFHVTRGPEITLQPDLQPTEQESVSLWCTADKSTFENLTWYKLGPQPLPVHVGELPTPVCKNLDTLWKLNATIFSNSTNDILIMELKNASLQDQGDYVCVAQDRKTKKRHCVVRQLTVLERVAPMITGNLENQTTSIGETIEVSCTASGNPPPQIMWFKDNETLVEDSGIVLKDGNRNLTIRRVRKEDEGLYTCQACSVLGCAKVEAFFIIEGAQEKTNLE
Assay: periprep Fab direct binding ELISA (FIG. 1)

binder | binding result
MAB02D08 Fab (Fab, V domains shown, Library-derived clone screened as human IgG1-kappa Fab in E. coli periplasmic extract; also called MAB02D08 (periprep Fab)) VH: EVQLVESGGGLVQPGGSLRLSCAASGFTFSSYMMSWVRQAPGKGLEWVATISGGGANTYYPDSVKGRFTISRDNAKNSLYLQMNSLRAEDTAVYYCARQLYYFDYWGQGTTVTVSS VL: DIQMTQSPSSLSASVGDRVTITCLASQESGIWLSWYQQKPGKAPKLLIYTATSLADGVPSRFSGSGSGTDFTLTISSLQPEDFATYYCQQVYSIPWTFGGGTKVEIK | binds
MAB05E08 Fab (Fab, V domains shown, Library-derived clone screened as human IgG1-kappa Fab in E. coli periplasmic extract; also called MAB05E08 (periprep Fab)) VH: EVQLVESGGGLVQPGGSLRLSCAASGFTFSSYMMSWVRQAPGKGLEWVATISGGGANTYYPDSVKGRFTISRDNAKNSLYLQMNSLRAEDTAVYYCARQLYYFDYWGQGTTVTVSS VL: DIQMTQSPSSLSASVGDRVTITCLASQTIGTWLTWYQQKPGKAPKLLIYTATSLADGVPSRFSGSGSGTDFTLTISSLQPEDFATYYCQQVSVTPFTFGGGTKVEIK | binds
